- TARGET OF ASSAY: UniProtKB P25103
- Sequence (P25103 whole entry): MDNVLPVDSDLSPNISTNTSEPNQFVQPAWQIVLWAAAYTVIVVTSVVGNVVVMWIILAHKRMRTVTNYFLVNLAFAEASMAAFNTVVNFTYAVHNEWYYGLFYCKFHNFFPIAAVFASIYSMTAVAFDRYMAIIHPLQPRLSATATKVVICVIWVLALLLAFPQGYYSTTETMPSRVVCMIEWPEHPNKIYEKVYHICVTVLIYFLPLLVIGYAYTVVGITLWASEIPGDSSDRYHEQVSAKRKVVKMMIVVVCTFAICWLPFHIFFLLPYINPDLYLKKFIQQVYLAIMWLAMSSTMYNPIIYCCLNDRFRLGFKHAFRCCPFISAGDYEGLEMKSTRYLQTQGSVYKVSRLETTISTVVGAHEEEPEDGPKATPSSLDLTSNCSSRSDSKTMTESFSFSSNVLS
- Assay type: cell membranes, Membrane
- DETAILS: cho; note: in other assays of this panel Not Active means under 50% inhibition at 10 µM
REPORTED METRIC: IC50

Some entries whose results are on file:
| COMPOUND | TARGET OF ASSAY | IC50 |
| --- | --- | --- |
| CCN1CCN(C(=O)N[C@@H](C(=O)N[C@@H]2C(=O)N3[C@@H]2SC(C)(C)[C@@H]3C(=O)O)c2ccccc2)C(=O)C1=O | UniProtKB P25103 | Not Active |
| O=c1[nH]c2ccccc2c2ccccc12 | UniProtKB P25103 | Not Active |
| NC(=O)NC(=O)Cc1ccccc1 [PHENACEMIDE] | UniProtKB P25103 | Not Active |
| Nc1ccc(Cc2ccc(N)cc2)cc1 | UniProtKB P25103 | Not Active |
| CN(CCOc1ccc(C[C@H](Nc2ccccc2C(=O)c2ccccc2)C(=O)O)cc1)c1ccccn1 | UniProtKB P25103 | Not Active |

GET /values?item= O=C(c1ccccc1)c1ccc2n1CCC2C(=O)O (stereo not given) &system= UniProtKB P25103 returns IC50: Not Active

GET /values?item= O=C(NCCN1CCOCC1)c1ccc(Cl)cc1 [MOCLOBEMIDE] &system= UniProtKB P25103 returns IC50: Not Active

GET /values?item= CNC[C@H](O)c1ccc(O)c(O)c1 [EPINEPHRINE] &system= UniProtKB P25103 returns IC50: Not Active

GET /values?item= `O=C(O)CO` &system= UniProtKB P25103 returns IC50: Not Active

GET /values?item= `CCC1(c2ccccc2)C(=O)NC(=O)NC1=O` &system= UniProtKB P25103 returns IC50: Not Active

GET /values?item= `C[N+](C)(C)CCOC(N)=O.[Cl-]` &system= UniProtKB P25103 returns IC50: Not Active

GET /values?item= `C[C@H](C(=O)O)c1ccc2oc(-c3ccc(F)cc3)nc2c1` &system= UniProtKB P25103 returns IC50: Not Active

GET /values?item= `Cc1nnc(NS(=O)(=O)c2ccc(N)cc2)s1` &system= UniProtKB P25103 returns IC50: Not Active

GET /values?item= `c1ccc(Cn2ccnc2)cc1` &system= UniProtKB P25103 returns IC50: Not Active

GET /values?item= `COC(=O)Nc1nc2ccc(Sc3ccccc3)cc2[nH]1` &system= UniProtKB P25103 returns IC50: Not Active

GET /values?item= `O=C(O)c1cc(/N=N/c2ccc(S(=O)(=O)Nc3ccccn3)cc2)ccc1O` &system= UniProtKB P25103 returns IC50: Not Active

GET /values?item= `C#C[C@]1(O)CC[C@H]2[C@@H]3[C@H](C)CC4=C(CCC(=O)C4)[C@H]3CC[C@@]21C` &system= UniProtKB P25103 returns IC50: Not Active

GET /values?item= CC(N)Cc1c[nH]c2ccc(OCc3cccs3)cc12 (stereo not given) &system= UniProtKB P25103 returns IC50: Not Active

GET /values?item= `CC(=O)[C@]1(O)Cc2c(O)c3c(c(O)c2[C@@H](O[C@H]2C[C@H](N)[C@H](O)[C@H](C)O2)C1)C(=O)c1ccccc1C3=O` &system= UniProtKB P25103 returns IC50: Not Active

GET /values?item= `O=C1CN(/N=C/c2ccc([N+](=O)[O-])o2)C(=O)N1` &system= UniProtKB P25103 returns IC50: Not Active
